Test system: NCI-H292 lung cancer cells
TEST_SUMMARY: FDA drug screening, complete media vs cholesterol-free media with simvastatin (TABLE 2)
Assay type: cell-based, human
CONDITION_DESCRIPTION: NCI-H292 cells, FDA library drug in complete media
Structures can show the parent of a compound that is named as a salt. Numbered stars: 1 amine (or outer) side, 2 acyl side, 3 side chain; on linkers, the order of the positions; unused ones are H or OH. Bridge positions count the residues as written; N and C are the ends. Square brackets hold non-standard residues; d marks the D form. Peptide text beside a SMILES is read from it. * marks the point of attachment. hTyr(3S-OH,4S-OH,3'-OSO3H) = N[C@H](C(=O)O)[C@H](O)[C@@H](O)c1ccc(O)c(OS(=O)(=O)O)c1; Orn(4R-OH,5R-OH) = O=C([C@H](C[C@@H](O)[C@@H](O)N[*:3])N[*:1])[*:2]; Pro(3S-OH,4S-Me) = C[C@H]1CN[C@H](C(=O)O)[C@H]1O; X1 = CCCCCOc1ccc(-c2cc(-c3ccc(C(=O)*)cc3)no2)cc1; Gln(3R-OH) = NC(=O)C[C@@H](O)[C@H](N)C(=O)O; Hyp = O=C(O)[C@@H]1C[C@@H](O)CN1
PROPERTY: Complete Media
// no unit, no text: just the number

Lookup: Requested field: Complete Media. Item: "N[C@H](Cc1ccc(O)cc1)C(=O)O"
Found: 0.9975

Lookup: Same lookup for CC[C@@H](CO)NCCN[C@@H](CC)CO [Ethambutol (dihydrochloride)] , please.
Found: 1.016

Lookup: Same lookup for CCCCCOc1ccc(-c2cc(-c3ccc(C(=O)N[C@H]4C[C@@H](O)[C@@H](O)NC(=O)[C@@H]5[C@@H](O)[C@@H](C)CN5C(=O)[C@H]([C@H](O)CC(N)=O)NC(=O)[C@H]([C@H](O)[C@@H](O)c5ccc(O)c(OS(=O)(=O)O)c5)NC(=O)[C@@H]5C[C@@H](O)CN5C(=O)[C@H]([C@@H](C)O)NC4=O)cc3)no2)cc1 [Micafungin (sodium)] (X1-[Orn(4R-OH,5R-OH)]T[Hyp][hTyr(3S-OH,4S-OH,3'-OSO3H)][Gln(3R-OH)][Pro(3S-OH,4S-Me)]; lactam 1-C) , please.
Found: 1.774

Lookup: Same lookup for "CCOC(=O)c1ncn2c1CN(C)C(=O)c1cc(F)ccc1-2" , please.
Found: 0.8397

Lookup: Same lookup for COc1ccc(CCNCC(O)COc2cccc(C)c2)cc1OC (stereo not shown) [Bevantolol (hydrochloride)] , please.
Found: 0.952

Lookup: Same lookup for "CC(=O)c1ccc(O)c(C(=O)O)c1" , please.
Found: 0.8198

Lookup: Same lookup for "Cc1ccnc2c1NC(=O)c1cccnc1N2C1CC1" , please.
Found: 0.9254
